target: IKKε (Homo sapiens, UniProt Q14164); construct: purchased Invitrogen PR8031B; assay: IKKε inhibition, ADP-Glo Kinase Assay; format: biochemical; conditions: luminometer
# maps each entry to its log10 IC50
The base-10 logarithm of IC50, taken with IC50 in µM, is what appears here.

The examples below pair each entry with its known result.
O=C(Nc1n[nH]c2ccc(C(=O)NC(c3cccnc3)C3CC3)cc12)c1ccc(N2CCOCC2)cc1 (centres unmarked) = -1.02
CN1CCN(c2ccc(C(=O)Nc3n[nH]c4ccc(C(=O)NC5(c6cccs6)CC5)cc34)cc2)CC1 = -2.47
Cc1cc(CNC(=O)c2ccc3[nH]nc(NC(=O)c4ccc(N5CCN(C)CC5)cc4)c3c2)ccn1 = 0.18
CCC(NC(=O)c1ccc2[nH]nc(NC(=O)c3ccc(N4CCNCC4)cc3)c2c1)c1cccs1 (centres unmarked) = -1.60

Let us examine a further case.
For `CC(C)(C)OC(=O)N1CC=C(c2ccc(C(=O)Nc3n[nH]c4ccc(C(=O)NCc5cccs5)cc34)cc2)CC1` , what is its reported log10 IC50?
0.11

* * *

target: TBK1 (Homo sapiens, UniProt Q9UHD2); construct: purchased Promega V3991; assay: TBK1 inhibition, ADP-Glo Kinase Assay; format: biochemical; conditions: luminometer
Sequence (Q9UHD2 whole entry): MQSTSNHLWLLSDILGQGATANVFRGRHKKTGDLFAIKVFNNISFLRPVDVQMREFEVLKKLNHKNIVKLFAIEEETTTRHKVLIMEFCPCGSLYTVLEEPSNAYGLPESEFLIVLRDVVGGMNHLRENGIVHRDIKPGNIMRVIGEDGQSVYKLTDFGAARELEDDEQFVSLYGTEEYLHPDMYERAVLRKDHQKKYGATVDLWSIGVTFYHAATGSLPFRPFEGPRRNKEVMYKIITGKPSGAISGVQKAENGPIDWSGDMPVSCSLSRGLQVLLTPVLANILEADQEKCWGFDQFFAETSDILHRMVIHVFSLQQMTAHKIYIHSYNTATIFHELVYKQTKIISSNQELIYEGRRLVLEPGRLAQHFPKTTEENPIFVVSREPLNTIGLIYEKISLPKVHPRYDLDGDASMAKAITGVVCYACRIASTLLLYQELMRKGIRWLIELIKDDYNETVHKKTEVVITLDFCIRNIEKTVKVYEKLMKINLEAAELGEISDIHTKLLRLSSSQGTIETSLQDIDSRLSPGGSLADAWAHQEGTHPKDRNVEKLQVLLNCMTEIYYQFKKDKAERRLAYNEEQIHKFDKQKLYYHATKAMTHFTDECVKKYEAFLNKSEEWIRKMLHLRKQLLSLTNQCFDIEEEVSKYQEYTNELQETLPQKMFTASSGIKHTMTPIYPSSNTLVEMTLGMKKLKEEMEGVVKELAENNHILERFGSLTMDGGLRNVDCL
Rule: IC50 below 0.04 µM gives True, anything at or above gives False.

Cc1cnc(-c2cc3[nH]nc(NC(=O)c4ccc(N(C)C)cc4)c3s2)s1 = False
CCCC(NC(=O)c1ccc2[nH]nc(NC(=O)c3ccc(F)cc3)c2c1)c1cccs1 (stereo not shown) = False
O=C(NCc1cccs1)c1ccc2[nH]nc(NC(=O)c3ccc(OCCN4CCOCC4)cc3)c2c1 = True

Lab log: compare recorded IC50 with 0.04 µM; is it strictly lower for CC1CN(c2ccc(C(=O)Nc3n[nH]c4ccc(C(=O)NCc5cccs5)cc34)cc2)CC(C)O1 (stereo not shown) [Example 92, 2,2,2-trifluoroacetate] ?
True

Lab note: IC50 threshold 0.04 µM. Does this compound come in strictly under it? CC(NC(=O)c1ccc2[nH]nc(NC(=O)c3ccc(N4CCN[C@H](C)C4)cc3)c2c1)c1ccccc1 (stereo partly shown) [Example 185, 2,2,2-trifluoroacetate]
True

Please check: IC50 for `O=C(NCc1cccs1)c1ccc2[nH]nc(NC(=O)c3ccc(NCCN4CCOCC4)cc3)c2c1` , strictly under 0.04 µM or not?
True

I wonder whether `CN1CCN(c2ccc(C(=O)Nc3n[nH]c4ccc(C(=O)NCc5cscn5)cc34)cc2)CC1` has IC50 below 0.04 µM. Can you tell?
False

* * *

Molecular target: IKKε (Homo sapiens, UniProt Q14164)
Construct: purchased Invitrogen PR8031B
Sequence (Q14164 1-716): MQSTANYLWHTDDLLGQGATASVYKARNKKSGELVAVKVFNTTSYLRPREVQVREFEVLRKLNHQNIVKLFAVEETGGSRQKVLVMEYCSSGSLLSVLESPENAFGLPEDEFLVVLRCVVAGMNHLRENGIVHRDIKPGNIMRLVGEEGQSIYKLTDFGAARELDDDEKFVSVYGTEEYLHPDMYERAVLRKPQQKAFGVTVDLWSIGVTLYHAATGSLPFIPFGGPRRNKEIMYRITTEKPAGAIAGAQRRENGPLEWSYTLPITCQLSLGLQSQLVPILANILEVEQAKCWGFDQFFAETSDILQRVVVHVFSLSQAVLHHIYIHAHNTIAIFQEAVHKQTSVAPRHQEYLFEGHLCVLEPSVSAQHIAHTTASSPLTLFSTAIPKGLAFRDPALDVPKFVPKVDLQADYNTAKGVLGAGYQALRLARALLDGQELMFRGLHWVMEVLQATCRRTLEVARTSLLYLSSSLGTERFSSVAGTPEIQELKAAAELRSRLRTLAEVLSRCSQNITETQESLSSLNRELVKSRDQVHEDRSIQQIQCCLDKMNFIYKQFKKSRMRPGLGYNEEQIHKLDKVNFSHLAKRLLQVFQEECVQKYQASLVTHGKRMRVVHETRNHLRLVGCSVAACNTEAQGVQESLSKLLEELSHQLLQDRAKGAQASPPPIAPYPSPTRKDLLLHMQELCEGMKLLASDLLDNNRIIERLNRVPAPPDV
Assay: IKKε inhibition, ADP-Glo Kinase Assay
Assay type: biochemical
Conditions: luminometer
// classify: if (IC50 < 0.1 µM) rule met else rule not met

Does CCCCNC(=O)c1ccc2[nH]nc(NC(=O)c3ccc(N4CCN(C)CC4)cc3)c2c1 [Example 113, 2,2,2-trifluoroacetate] have IC50 strictly under 0.1 µM?
rule not met

hey, is IC50 for `CN1CCN(c2ccc(C(=O)Nc3n[nH]c4ccc(C(=O)NCC5CCCCC5)cc34)cc2)CC1` lower than 0.1 µM or not?
rule met

State whether 0.1 µM exceeds IC50 recorded for `CN1CCN(c2ccc(C(=O)Nc3n[nH]c4ccc(C(=O)NCc5ccco5)cc34)cc2)CC1` .
rule met

Check if IC50 falls below 0.1 µM for `O=C(NCc1cccs1)c1ccc2[nH]nc(NC(=O)c3ccc(OCCN4CCOCC4)cc3)c2c1` .
rule met

* * *

Each item that follows carries a reported IC50.
target: IKKε (Homo sapiens, UniProt Q14164); construct: purchased Invitrogen PR8031B; assay: IKKε inhibition, ADP-Glo Kinase Assay; assay type: biochemical; conditions: luminometer
Return type: number; implicit unit µM.

CN1CCN(c2ccc(C(=O)Nc3n[nH]c4ccc(C(=O)NCc5cccc(F)c5)cc34)cc2)CC1 = 0.05
CN1CCN(c2ccc(C(=O)Nc3n[nH]c4ccc(C(=O)NCc5ccno5)cc34)cc2)CC1 = 0.16
CC(NC(=O)c1ccc2[nH]nc(NC(=O)c3ccc(F)cc3)c2c1)c1ccncc1 (centres unmarked) = 0.59
CC(NC(=O)c1ccc2[nH]nc(NC(=O)c3ccc(N4CCOCC4)cc3)c2c1)c1ccccc1 (centres unmarked) = 0.12
CN1CCN(c2ccc(C(=O)Nc3n[nH]c4ccc(C(=O)NCc5ccccc5)cc34)cc2)CC1 = 0.0089

Would you kindly share the measured IC50 for `Cc1cc(N2CCN(C)CC2)ccc1C(=O)Nc1n[nH]c2ccc(C(=O)NCc3cccs3)cc12` ?
0.079

# get_value(readout='IC50', item= CC(C)CCNC(=O)c1ccc2[nH]nc(NC(=O)c3ccc(N4CCOCC4)cc3)c2c1 [Example 116, 2,2,2-trifluoroacetate] )
3.12

// lookup IC50 for `CN1CCN(c2ccc(C(=O)Nc3n[nH]c4ccc(C(=O)NCc5ccccc5F)cc34)cc2)CC1`
0.032

Fill in: IC50 of `C[C@H](NC(=O)c1ccc2[nH]nc(NC(=O)c3ccc(N4CCN(C)CC4)cc3)c2c1)c1ccccc1` is ___
0.34

GET /values?readout=IC50&item= CN1CCN(c2ccc(C(=O)Nc3n[nH]c4ccc(C(=O)NC(c5ccccn5)C5CC5)cc34)cc2)CC1 (centres unmarked)
0.27

Look up IC50 for this compound: `O=C(NCc1cccs1)c1ccc2[nH]nc(NC(=O)c3ccc(NCCN4CCCC4)cc3)c2c1`
0.092

Fill in the blank: the reported IC50 of CC(NC(=O)c1ccc2[nH]nc(NC(=O)c3ccc(N4CCN(C)CC4)cc3)c2c1)c1cccs1 (centres unmarked) is ____.
0.0031

Quick one: IC50 of CC(NC(=O)c1ccc2[nH]nc(NC(=O)c3ccc(N4CCN(C)CC4)cc3)c2c1)c1ccncc1 (centres unmarked) ?
0.053

Requested field: IC50. Item: O=C(NCc1cccs1)c1ccc2[nH]nc(NC(=O)c3ccc(NCC4CCCO4)cc3)c2c1 (centres unmarked)
0.05

Query (compound): CN1CCN(c2ccc(C(=O)Nc3n[nH]c4ccc(C(=O)NCc5cccnc5)cc34)cc2)CC1 [Example 57, bis(2,2,2-trifluoroacetate)] ; field requested: IC50
0.14

Data request, read-out IC50, for CC(NC(=O)c1ccc2[nH]nc(NC(=O)c3ccc(N4CCN(C)CC4)cc3)c2c1)c1ccccc1 (centres unmarked)
0.019

If you can, please state the reported IC50 value of CCC(NC(=O)c1ccc2[nH]nc(NC(=O)c3ccc(N4CCOCC4)cc3)c2c1)c1cccs1 (centres unmarked) .
0.0031

Look up IC50: `O=C(NCc1cccs1)c1ccc2[nH]nc(NC(=O)c3ccc(-n4ccnc4)cc3)c2c1`
0.36

Using the record for `CC(C)(NC(=O)c1ccc2[nH]nc(NC(=O)c3ccc(N4CCOCC4)cc3)c2c1)c1cccs1` , report its IC50.
0.033

* * *

Recorded IC50 values for a group of compounds are listed next.
target: TBK1 (Homo sapiens, UniProt Q9UHD2); construct: purchased Promega V3991; experiment: TBK1 inhibition, ADP-Glo Kinase Assay; type: biochemical; details: luminometer

CC(C)(NC(=O)c1ccc2[nH]nc(NC(=O)c3ccc(N4CCOCC4)cc3)c2c1)c1ccccc1 = 0.011 µM
O=C(NCc1cccs1)c1ccc2[nH]nc(NC(=O)c3ccc(-n4ccnc4)cc3)c2c1 = 0.078 µM
CCCC(NC(=O)c1ccc2[nH]nc(NC(=O)c3ccc(N4CCN(C)CC4)cc3)c2c1)c1cccs1 (centres unmarked) = 0.032 µM
CC(C)CC(NC(=O)c1ccc2[nH]nc(NC(=O)c3ccc(N4CCN(C)CC4)cc3)c2c1)c1cccs1 (centres unmarked) = 0.022 µM
CN1CCN(c2ccc(C(=O)Nc3n[nH]c4ccc(C(=O)NCc5ccccn5)cc34)cc2)CC1 [Example 85, bis(2,2,2-trifluoroacetate)] = 0.16 µM
O=C(NCc1ccco1)c1ccc2[nH]nc(NC(=O)c3ccc(N4CCOCC4)cc3)c2c1 = 0.0058 µM
O=C(NCc1cccs1)c1ccc2[nH]nc(NC(=O)c3ccc(NCC4CCCCC4)cc3)c2c1 = 0.26 µM

# input for lookup
Recorded IC50 for CCC(NC(=O)c1ccc2[nH]nc(NC(=O)c3ccc(N4CCN[C@H](C)C4)cc3)c2c1)c1cccs1 (some centres unmarked) [Example 98, 2,2,2-trifluoroacetate] , please?
0.003 µM
